Study System: Protein deacetylase HDAC6 (Homo sapiens) (UniProt Q9UBN7)
Sequence (Q9UBN7 whole entry): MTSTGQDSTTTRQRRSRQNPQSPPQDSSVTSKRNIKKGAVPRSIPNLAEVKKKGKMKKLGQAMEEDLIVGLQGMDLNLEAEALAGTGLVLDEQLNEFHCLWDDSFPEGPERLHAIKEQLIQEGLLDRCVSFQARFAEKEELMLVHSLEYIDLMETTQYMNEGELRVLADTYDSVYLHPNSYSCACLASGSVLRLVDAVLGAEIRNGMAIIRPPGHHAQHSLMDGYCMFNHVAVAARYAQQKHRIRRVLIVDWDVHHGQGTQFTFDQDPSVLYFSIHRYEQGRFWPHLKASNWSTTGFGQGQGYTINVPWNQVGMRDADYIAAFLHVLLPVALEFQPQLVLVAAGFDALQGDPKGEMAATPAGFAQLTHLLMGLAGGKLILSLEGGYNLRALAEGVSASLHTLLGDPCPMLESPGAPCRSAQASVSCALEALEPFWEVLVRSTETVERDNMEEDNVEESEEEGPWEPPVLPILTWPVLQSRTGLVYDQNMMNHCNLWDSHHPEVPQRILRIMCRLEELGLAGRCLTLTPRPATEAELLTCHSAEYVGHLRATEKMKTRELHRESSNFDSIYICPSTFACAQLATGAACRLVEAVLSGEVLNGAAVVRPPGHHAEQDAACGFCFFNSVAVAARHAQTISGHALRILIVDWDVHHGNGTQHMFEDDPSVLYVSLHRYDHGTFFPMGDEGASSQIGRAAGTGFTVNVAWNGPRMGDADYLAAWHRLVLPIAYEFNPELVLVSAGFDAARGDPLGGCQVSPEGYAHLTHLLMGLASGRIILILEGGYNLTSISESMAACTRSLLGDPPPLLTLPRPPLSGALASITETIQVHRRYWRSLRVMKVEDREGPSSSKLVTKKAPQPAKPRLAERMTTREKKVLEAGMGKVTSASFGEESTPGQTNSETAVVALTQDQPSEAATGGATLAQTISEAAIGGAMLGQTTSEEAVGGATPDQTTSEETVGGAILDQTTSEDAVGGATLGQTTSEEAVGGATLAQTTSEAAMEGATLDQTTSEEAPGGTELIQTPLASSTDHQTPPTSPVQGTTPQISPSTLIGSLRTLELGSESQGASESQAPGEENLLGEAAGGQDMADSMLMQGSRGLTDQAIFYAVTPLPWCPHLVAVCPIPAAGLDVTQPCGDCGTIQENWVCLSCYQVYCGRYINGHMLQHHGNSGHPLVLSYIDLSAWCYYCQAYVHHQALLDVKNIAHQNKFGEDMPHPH
Assay Overview: Inhibition of HDAC6 (unknown origin) at 10 nM incubated for 60 mins by microplate reader analysis relative to control
Quantity Measured: inhibition (%)
Output spec: scalar in %, unitless text.

{"Smiles Record": "Cc1ccc(Cn2ccc3cnc(Nc4cnn(CCCCCC(=O)NO)c4)nc32)cc1", "Study System": "Protein deacetylase HDAC6 (Homo sapiens) (UniProt Q9UBN7)", "Test Value": 34}

COc1ccc(Cn2ccc3cnc(Nc4cnn(CCCCCC(=O)NO)c4)nc32)cc1 has a reported inhibition of 46

O=C(CCCCCCn1cc(Nc2ncc3ccn(CCc4ccccc4)c3n2)cn1)NO has a reported inhibition of 49

O=C(CCCCCCn1cc(Nc2ncc3ccn(Cc4ccc(Cl)cc4)c3n2)cn1)NO has a reported inhibition of 39

COc1ccc(Cn2ccc3cnc(Nc4cnn(CCCCCCC(=O)NO)c4)nc32)cc1 has a reported inhibition of 40
